Parameter: Apical domain, RLU. Scope: all listed entries.
- study system: T1, apical domain of human CD71 (human, UniProt P02786 189-383, limits assumed)
- T1 construct: domain: apical domain; the panning antigen was 30% biotinylated; also called human apical domain of CD71
- T1 sequence (P02786 189-383 limits assumed): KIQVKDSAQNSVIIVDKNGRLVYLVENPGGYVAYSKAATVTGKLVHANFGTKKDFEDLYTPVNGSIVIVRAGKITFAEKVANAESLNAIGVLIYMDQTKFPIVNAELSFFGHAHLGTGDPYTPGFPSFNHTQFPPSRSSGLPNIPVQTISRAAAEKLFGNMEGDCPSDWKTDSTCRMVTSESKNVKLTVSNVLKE
- test name: primary ELISA of colonies, luminescence
Please respond with the number in RLU and leave the unit unwritten.

Sample answers from the record:
- CD71-binding FN3 domain of SEQ ID NO: 109 (designed binder, Screen 1 hit, tested from colonies in the primary ELISA; not shown: C-terminal poly-histidine tag added to each FN3 domain) MLPAPKNLVVSRVTEDSARLSWTAPDAAFDSFFIGYLEPQPPGEAIILHVPGSERSYDLTGLKPGTEYNVTIQGVKGGFPSLPLNANFTT: 3.35e+06
- CD71-binding FN3 domain of SEQ ID NO: 100 (designed binder, Screen 1 hit, tested from colonies in the primary ELISA; not shown: C-terminal poly-histidine tag added to each FN3 domain) MLPAPKNLVVSRVTEDSARLSWTAPDAAFDSFYIAYAEPRPDGEAILLLVPGSERSYDLTGLKPGTEYSVLIHGVKGGLLSSPLVASFTT: 6.1e+06
- CD71-binding FN3 domain of SEQ ID NO: 116 (designed binder, Screen 1 hit, tested from colonies in the primary ELISA; not shown: C-terminal poly-histidine tag added to each FN3 domain) MLPAPKNLVVSRVTEDSARLSWTAPDAAFDSFYIAYAEPRPDGEAILLLVPGSERSYDLTGLKPGTEYSVLIHGVKGGLLSSPLIAGFTT: 6.06e+06
- CD71-binding FN3 domain of SEQ ID NO: 105 (designed binder, Screen 1 hit, tested from colonies in the primary ELISA; not shown: C-terminal poly-histidine tag added to each FN3 domain) MLPAPKNLVVSRVTEDSARLSWTAPDAAFDSFHIVYHEPRPSGEAIWLWVPGSERSYDLTGLKPGTEYEVGIVSVKGGDLSVPLSAIFTT: 3.84e+06
- CD71-binding FN3 domain of SEQ ID NO: 111 (designed binder, Screen 1 hit, tested from colonies in the primary ELISA; not shown: C-terminal poly-histidine tag added to each FN3 domain) MLPAPKNLVVSRVTEDSARLSWTAPDAAFDSFFIGYLEPQPPGEAISLWVPGSERSYDLTGLKPGTEYNVTIQGVKGGFPSIPLWAIFTT: 5.04e+06

Q. // fetch Apical domain, RLU given entry CD71-binding FN3 domain of SEQ ID NO: 115 (designed binder, Screen 1 hit, tested from colonies in the primary ELISA; not shown: C-terminal poly-histidine tag added to each FN3 domain) MLPAPKNLVVSRVTEDSARLSWTAPDAAFDSFFIGYLEPQPPGEAIDLYVPGSERSYDLTGLKPGIEYNVTIQGVKGGFPSLPLQAHFTT
A. 4.58e+06

Q. Hello, please tell me recorded Apical domain, RLU for this one: CD71-binding FN3 domain of SEQ ID NO: 114 (designed binder, Screen 1 hit, tested from colonies in the primary ELISA; not shown: C-terminal poly-histidine tag added to each FN3 domain) MLPAPKNLVVSRVTEDSARLSWTAPDAAFDSFHIVYHEPRPSGEAIWLFVPGSERSYDLTGLKPGTEYEVGIVSVKGGDLSVPLSAIFTT
A. 3.59e+06

Q. Note down Apical domain, RLU recorded for CD71-binding FN3 domain of SEQ ID NO: 112 (designed binder, Screen 1 hit, tested from colonies in the primary ELISA; not shown: C-terminal poly-histidine tag added to each FN3 domain) MLPAPKNLVVSRVTEDSARLSWTAPDAAFDSFFIGYLEPQPPGEAIDLWVPGSERSYDLTGLKPGTEYNVTIQGVKGGFPSMPLSAIFTT
A. 4.78e+06
